Listing of entries alongside the reported HEK-IL-13 [nM] (IC50, STAT6 reporter).
Biological target: recombinant human IL-13 (human, UniProt P35225 35-146)
Sequence (P35225 35-146 limits assumed): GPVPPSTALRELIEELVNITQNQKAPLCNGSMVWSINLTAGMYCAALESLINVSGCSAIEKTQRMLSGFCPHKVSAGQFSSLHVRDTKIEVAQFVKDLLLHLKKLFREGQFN
Experiment: cell-based or functional assay
OBSERVABLE: HEK-IL-13 [nM] (IC50, STAT6 reporter)

{"BINDER": "BDG38.089 (antibody, V domains shown) VH: QMQLVESGGGVVQPGRSLRLSCAASGFEFRTYGMHWVRQAPGKGLEWVGVIWYDGSATHYADSVKGRFTITRDNSKNTLNLQMNSLRVEDTAVYYCVRAPQWYLTAEAFDLWGQGTMVTVSS VL: SYILTQPPSVSVAPGETATITCGGNLIGARLVHWYQQKPGQAPVLVIYDDSDRPSRIPERFSGSNIGNTATLTISRVEEGDEADYYCQVWDHSSNHYVFGGGTKLTVL", "OBSERVABLE": "HEK-IL-13 [nM] (IC50, STAT6 reporter)", "TEST_RESULT": "0.075 nM"}
{"BINDER": "BDG38.122 (antibody, V domains shown) VH: QMQLVESGGGVVQPGRSLRLSCAASGFEFRTYGMHWVRQAPGKGLEWVAVIWDDGSNTHYADSVKGRFTITRDNSKNTLNLQMNSLRAEDTAVYYCVRAPQWYLTAEAFDLWGQGTMVTVSS VL: SYILTQPPSVSVAPGETATITCGGNLIGARLVHWYQQKPGQAPVLVIYDDSDRPSRIPERFSGSNIGNTATLTISRVEEGDEADYYCQVWDYSSDSYVFGGGTKLTVL", "OBSERVABLE": "HEK-IL-13 [nM] (IC50, STAT6 reporter)", "TEST_RESULT": "0.079 nM"}
{"BINDER": "BDG38.143 (antibody, V domains shown) VH: QMQLVESGGGVVQPGRSLRLSCAASGFEFRTYGMHWVRQAPGKGLEWVGVIWDDGSATHYADSVKGRFTITRDNSKNTLNLQMNSLRVEDTAVYYCVRAPQWYLTAEAFDLWGQGTMVTVSS VL: SYILTQPPSVSVAPGQTATITCGGALIGARLVHWYQQKPGQAPVLVIYDDSDRPSRIPERFSGSNIGNTATLTISRVEEGDEADYYCQVWDYSSNTYVFGGGTKLTVL", "OBSERVABLE": "HEK-IL-13 [nM] (IC50, STAT6 reporter)", "TEST_RESULT": "0.0438 nM"}
{"BINDER": "BDG38.106 (antibody, V domains shown, IgG1) VH: QMQLVESGGGVVQPGRSLTLSCAASGFEFRTYGMHWVRQAPGKGLEWVAVIWDDGSNTVYADSVKGRFTITRDNSKNTLNLQMNSLRVEDTAVYYCVRAPQWYLTAEAFDLWGQGTMVTVSS VL: SYILTQPPSVSVAPGQTATITCGGNLIGSRLVHWYQQKPGQAPVLVIYDDSDRPSRIPERFSGSNIGNTATLTIEDVEEGDEADYYCQVWDHYSDHMVFGGGTKLTVL", "OBSERVABLE": "HEK-IL-13 [nM] (IC50, STAT6 reporter)", "TEST_RESULT": "0.0113 nM"}
{"BINDER": "BDG38.095 (antibody, V domains shown) VH: QMQLVESGGGVVQPGRSLTLSCAASGFEFRTYGMHWVRQAPGKGLEWVGVIWYDGSATHYADSVKGRFTITRDNSKNTLNLQMNSLRAEDTAVYYCVRAPQWYLTAEAFDLWGQGTMVTVSS VL: SYVLTQPPSVSVAPGQTATITCGGALIGSRLVHWYQQKPGQAPVLVVYDDSDRPSRIPERFSGSNIGNTATLTISRVEEGDEADYYCQVWDYYSDSYVFGGGTKLTVL", "OBSERVABLE": "HEK-IL-13 [nM] (IC50, STAT6 reporter)", "TEST_RESULT": "0.0822 nM"}
